Experiment: Shn3 3'UTR reporter inhibitors, dose response, cell-based, Clone20 osteoblasts, firefly luciferase, cherry-picked (AID 624132);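 also: firefly luciferase luminescence from reporter carrying the Shn3 3'UTR in osteoblasts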
Type: functional
Active and inactive are the calls of the source.
TEST_READOUT: AC50

STRUCTURE: C=CCn1c(SCC(=O)c2[nH]c(C)c(C(=O)OC)c2C)nc2scc(-c3ccc(OC)c(OC)c3)c2c1=O
AC50: 2.01 µM (active)
--
STRUCTURE: CCN(CC)S(=O)(=O)c1cccc(NC(=O)CNc2cccc(S(=O)(=O)N3CCOCC3)c2)c1
AC50: 0.865 µM (active)
--
STRUCTURE: CCOC(=O)c1c(C)[nH]c(C)c1C(=O)CSc1nc2ccccc2c(=O)n1-c1ccc(CC)cc1
AC50: 5.36 µM (active)

Now for a further molecule.
So for CC(=O)c1ccc(N2CCN(S(=O)(=O)c3ccc(-c4cnc(C5CC5)o4)cc3)CC2)cc1 , the logged AC50 turned out to be 5.95 µM (active)

###

Test: Luminescence Cell-Based Dose Confirmation HTS to Identify Inhibitors of Platelet Dense Granule Release. [Related pubchem assays: 1663 (Primary HTS), 1678 (Summary of Project)]
Assay type: functional
Calls of active or inactive are those of the source.
Quick reference: EC50 of the listed items.

STRUCTURE: Cn1c(NC(=O)Cc2cccs2)cc(=O)n(C)c1=O
EC50: > 112 µM (not active)

Measured EC50 of CC(=O)Nc1cccc(NC(=O)C(=O)Nc2ccc3c(c2)N(C(=O)C2CC2)CCC3)c1 : > 112 µM (not active)

Record COCCCNC(=O)Cn1c(=O)n(CCCCCC(=O)Nc2ccccc2)c(=O)c2sccc21 . Reported EC50: > 112 µM (not active)

// COc1ccc(C(=O)Nc2cccc(C)c2)cc1 : EC50 value = 7.08 µM (active)

EC50 recorded for this compound, O=C(Nc1nc2cc3c(cc2s1)OCCO3)C1=COCCO1 , is 5.65 µM (active)

EC50 reported for this compound CCNS(=O)(=O)c1ccc(NC(=O)c2cccnc2)cc1 : > 112 µM (not active)

###

Assay: control 3'UTR Renilla luciferase suppression, dose response, counter-screen for Shn3 inhibitor project, cell-based, Clone20-Shn3RL, cherry-picked (AID 624133)
Format: functional
Active and inactive are the calls of the source.
Items are presented alongside their recorded AC50.

MOLECULE: CCOC(=O)c1c(C)[nH]c(C)c1C(=O)CSc1nc2ccccc2c(=O)n1-c1ccc(CC)cc1
AC50: 6.48 µM (active)

MOLECULE: C=CCCc1ccc(C#N)c(SCc2c(C(=O)OCC)c3cc(OC(C)=O)c(Br)cc3n2C)n1
AC50: 2.75 µM (active)

MOLECULE: Cc1ccccc1OCCn1cc(C(=S)N2CCCC2)c2ccccc21
AC50: 20.9 µM (active)

MOLECULE: CCN(CC)S(=O)(=O)c1cccc(NC(=O)CNc2cccc(S(=O)(=O)N3CCOCC3)c2)c1
AC50: 2.77 µM (active)

MOLECULE: CCOc1cc(CNCCc2ccc(S(N)(=O)=O)cc2)ccc1OCc1ccc(Cl)cc1
AC50: 4.75 µM (active)

MOLECULE: Cc1onc(-c2ccccc2Cl)c1C(=O)N1CCC(Cc2ccccc2)CC1
AC50: 4.54 µM (active)

Now consider the entry below.
Noted for CCCOc1ccccc1C1CC(=O)Nc2cc3c(cc21)OCCO3 (configuration not stated) : its AC50 reads 10.2 µM (active)

###

Target: Bcl-2-related protein A1 (Mus musculus, UniProt Q07440)
Sequence (Q07440 whole entry): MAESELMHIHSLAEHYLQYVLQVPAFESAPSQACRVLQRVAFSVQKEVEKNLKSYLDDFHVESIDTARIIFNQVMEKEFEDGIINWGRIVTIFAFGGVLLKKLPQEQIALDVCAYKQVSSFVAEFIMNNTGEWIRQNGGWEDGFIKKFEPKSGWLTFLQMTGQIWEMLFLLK
Format: functional
Active and inactive are the calls of the source.
Permitted responses: yes = active, no = inactive

STRUCTURE: CCC[C@@H](CN1CCC[C@H]1CN1C(N)=NC[C@@H]1Cc1ccccc1)N1C[C@@H]([C@H](C)CC)N(CCCC2CCCC2)C1=N
TARGET_DESC: Bcl-2-related protein A1 (Mus musculus, UniProt Q07440);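 also: confirmatory dose–response counterscreen on Bfl-1, used to check hits from a UBC13 polyubiquitin inhibitor campaign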
CLASS_ASSIGNMENT: no

Request: Identify the outcome logged in this assay for the compound shown: CCN1CCN(Cc2ccc(NC(=O)c3cc(NC(=O)c4cncc(-c5ccc(C#N)cc5)c4)cc(OC)c3)cc2C(F)(F)F)CC1
Result: yes

Request: Write down the call the test reported for this compound. Item: c1ccc(CNc2nc(NCc3ccccc3)c3ccccc3n2)cc1
Result: yes

Request: Could you check what this test reported for CCN(CC)CCOC(=O)c1ccc(N/C=C(/C#N)c2nc(-c3ccc(OC)cc3)cs2)cc1 ?
Result: yes

###

Test system: BJ
Assay: cells
Assay type: functional, cell-based
Conditions: Homo sapiens
The source made the active and inactive calls.
Catalogue of EC50 readings, one per entry.

Measured EC50, CCN1/C(=C/C=C/c2oc3ccc(-c4ccccc4)cc3[n+]2CC)Oc2ccc(-c3ccccc3)cc21 : 1.32 µM (inconclusive)

# EC50 of O=C(/C=C/Sc1nc[nH]n1)c1ccc(Cl)cc1 = 6.44 µM (inconclusive)

So, Cc1ccc(C)c(C2NC(=O)c3ccccc3N2)c1 (stereo not given) ? Its EC50 was 93.9 µM (active)

For record Cc1ccc2[nH]c3c(c2c1)CCCC3NC(=O)CCl (stereo not given) the listed EC50 is 8.7 µM (active)

The reported value for Cc1cccc(NS(=O)(=O)c2ccc(-c3cnc(C4CC4)o3)cc2)c1C in terms of EC50 is 2.51 µM (active)

###

Target: Coagulation factor XII (Homo sapiens);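 also: activated factor XIIa alpha cleaving a fluorogenic AMC peptide substrate; inhibitor potency from loss of enzyme activity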
Format: functional
Activity calls are given as the source filed them.
Outcomes you can answer with include only these: true (active), false (inactive)

MOLECULE: CCOC(=O)C1(Cc2cccc(F)c2)CCN(C(=O)Cn2cnnn2)CC1
CLASS_ASSIGNMENT: false

Request: Dear colleague, could you share the recorded outcome for CN1C(=O)/C(=N/OC(=O)c2ccccc2)c2ccccc21 when you have a moment?
Result: true

Request: For COc1ccc(OC)c(NC(=O)CC2C(=O)NCCN2C(=O)Nc2cccc(Cl)c2)c1 (stereo not given) , what call appears in the results of this test?
Result: false

Request: Hi, do you know how Sc1nnc(-c2ccncc2)n1/N=C/C=C/c1ccco1 came out in this test?
Result: true

Request: For CC(C)Cn1c(-c2ccccc2)nc2ccccc2c1=O , which call appears in the assay record?
Result: false

###

Molecular target: Carboxy-terminal domain RNA polymerase II polypeptide A small phosphatase 1 (Homo sapiens, UniProt Q9GZU7)
Sequence (Q9GZU7 whole entry, the tested form may be a part): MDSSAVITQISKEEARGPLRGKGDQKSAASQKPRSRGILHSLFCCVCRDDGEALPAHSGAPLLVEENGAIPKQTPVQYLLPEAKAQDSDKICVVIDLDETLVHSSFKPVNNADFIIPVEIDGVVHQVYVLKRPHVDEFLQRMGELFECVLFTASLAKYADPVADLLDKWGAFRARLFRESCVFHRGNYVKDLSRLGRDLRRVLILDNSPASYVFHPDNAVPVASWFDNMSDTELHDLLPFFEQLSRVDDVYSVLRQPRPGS
Assay: inhibitors of CTDSP1, concentration-response testing, biochemical assay, absorbance-based, actives from ultra-high-throughput screening (AID 540297)
Assay type: functional
The source made the active and inactive calls.
TEST_READOUT: IC50

Lab note: O=C(COC(=O)c1cc(-c2ccccc2Cl)nc2ccccc12)Nc1ncc(C(F)(F)F)cc1Cl gave IC50 of 39 µM (active)

Please fill in: IC50 reported for O=C(N/N=C/c1ccc(F)cc1)c1cc(-c2ccc3c(c2)OCO3)[nH]n1 = 9.8 µM (active)

// O=C(N/N=C/c1ccco1)c1ccc(C(=O)N/N=C/c2ccco2)o1 : IC50 value = 4.92 µM (active)

Summary for this compound, COc1ccccc1OCCOc1ccc(/C=C2\C(=N)N3N=C(S(C)(=O)=O)SC3=NC2=O)cc1 : IC50 is 3.6 µM (active)

Note to self: IC50 recorded for O=C(N/N=C/c1cccc(Br)c1)c1ccc(Br)cc1 was 4.51 µM (active)

For this compound ( CC(C(=O)N1CCCCC1)N1CCN(S(=O)(=O)c2ccc(Cl)cc2)CC1 (stereo unspecified) ), measured IC50 is 54.9 µM (active)

###

Experiment: P. falciparum Dd2 growth inhibitors, dose response, SYBR Green, cherry-picked samples (AID 1159567)
Assay type: functional, cell-based
The source made the active and inactive calls.
Measured AC50 accompanies every entry in the list below.

Solved cases below.
STRUCTURE: C[C@@H]1CN([C@@H](C)CO)S(=O)(=O)c2ccc(C#Cc3ccccc3)cc2O[C@H]1CN(C)C(=O)C1CC1
AC50: 4.38 µM (active)

STRUCTURE: N#Cc1cccc(-c2ccc([C@@H]3[C@H](CO)N4CCCCN(C(=O)Nc5cccc(F)c5)C[C@@H]34)cc2)c1
AC50: 2.18 µM (active)

STRUCTURE: O=C(c1ccc(F)cc1)N1CC(=O)N2[C@H](C1)[C@@H](c1ccc(-c3cccnc3)cc1)[C@@H]2CO
AC50: 0.439 µM (active)

STRUCTURE: C[C@H](CO)N1C[C@H](C)[C@@H](CN(C)C(=O)Nc2ccc3c(c2)OCO3)Oc2ccc(NC(=O)Nc3ccc(C(F)(F)F)cc3)cc2CC1=O
AC50: 0.748 µM (active)

Sample CCCC(=O)N1CC2(C1)CN(Cc1ccccc1F)[C@H](CO)c1c2c2ccc(OC)cc2n1C ; AC50 observed: 6.14 µM (active)

###

Target: Estrogen receptor (Homo sapiens);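 also: potency for inhibiting coactivator peptide recruitment to the receptor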
Sequence (P03372 whole entry): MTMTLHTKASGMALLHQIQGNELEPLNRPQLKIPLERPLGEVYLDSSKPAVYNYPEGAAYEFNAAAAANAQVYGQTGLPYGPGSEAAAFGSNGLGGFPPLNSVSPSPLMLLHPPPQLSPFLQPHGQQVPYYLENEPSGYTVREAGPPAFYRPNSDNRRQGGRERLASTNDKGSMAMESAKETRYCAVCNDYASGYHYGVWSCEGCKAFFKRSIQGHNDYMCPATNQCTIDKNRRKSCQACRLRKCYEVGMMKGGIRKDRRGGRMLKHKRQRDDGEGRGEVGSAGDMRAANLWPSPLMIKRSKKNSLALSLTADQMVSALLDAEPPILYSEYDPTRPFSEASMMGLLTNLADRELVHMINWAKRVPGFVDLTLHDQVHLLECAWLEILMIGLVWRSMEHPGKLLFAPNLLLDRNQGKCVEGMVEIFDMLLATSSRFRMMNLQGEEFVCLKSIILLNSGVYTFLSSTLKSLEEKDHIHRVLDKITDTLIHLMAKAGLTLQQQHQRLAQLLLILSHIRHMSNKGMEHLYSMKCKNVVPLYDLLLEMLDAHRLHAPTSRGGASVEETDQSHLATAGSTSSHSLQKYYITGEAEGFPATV
The source made the active and inactive calls.
TEST_READOUT: IC50

Below, 6 compounds whose answers are already recorded.
COMPOUND: O=C(CSc1nc2cc(Cl)ccc2s1)NC(=O)NCc1ccco1
IC50: > 50 µM (not active)

COMPOUND: CCCCCCc1cc2cc(-c3nnc(-c4ccccc4)o3)c(=O)oc2cc1O
IC50: 34.9 µM (not active)

COMPOUND: CN1C(=O)CSc2ccc(NC(=O)N3CCC(N4CCCCC4)CC3)cc21
IC50: 11.8 µM (active)

COMPOUND: COc1ccccc1NC(=O)c1ccccc1NC(=O)c1cc(Cl)ccc1NC(=O)c1ccco1
IC50: 12.5 µM (active)

COMPOUND: c1ccc(OCc2nnc3sc(C4COc5ccccc5O4)nn23)cc1 (configuration not stated)
IC50: 9.55 µM (active)

COMPOUND: O=C(Cc1cccs1)Nc1nnc(COc2ccccc2)s1
IC50: 37.3 µM (not active)

For the next question, use this compound.
Note to self: IC50 recorded for Cc1snc2sc(C(=O)c3ccc(Br)cc3)c(N)c12 was 28.2 µM (active)

Cited source: ChEMBL document CHEMBL1201862
